Recorded values, source patent US12685735B2.

biological target: BRG-1 (Homo sapiens); assay: ATPase catalytic activity assay of BRG-1 (ADP-Glo); assay type: biochemical; settings: ATPase catalytic activity, ADP-Glo; read-out: BRG1 IC50 (μM)*
Sequence (P51532 whole entry): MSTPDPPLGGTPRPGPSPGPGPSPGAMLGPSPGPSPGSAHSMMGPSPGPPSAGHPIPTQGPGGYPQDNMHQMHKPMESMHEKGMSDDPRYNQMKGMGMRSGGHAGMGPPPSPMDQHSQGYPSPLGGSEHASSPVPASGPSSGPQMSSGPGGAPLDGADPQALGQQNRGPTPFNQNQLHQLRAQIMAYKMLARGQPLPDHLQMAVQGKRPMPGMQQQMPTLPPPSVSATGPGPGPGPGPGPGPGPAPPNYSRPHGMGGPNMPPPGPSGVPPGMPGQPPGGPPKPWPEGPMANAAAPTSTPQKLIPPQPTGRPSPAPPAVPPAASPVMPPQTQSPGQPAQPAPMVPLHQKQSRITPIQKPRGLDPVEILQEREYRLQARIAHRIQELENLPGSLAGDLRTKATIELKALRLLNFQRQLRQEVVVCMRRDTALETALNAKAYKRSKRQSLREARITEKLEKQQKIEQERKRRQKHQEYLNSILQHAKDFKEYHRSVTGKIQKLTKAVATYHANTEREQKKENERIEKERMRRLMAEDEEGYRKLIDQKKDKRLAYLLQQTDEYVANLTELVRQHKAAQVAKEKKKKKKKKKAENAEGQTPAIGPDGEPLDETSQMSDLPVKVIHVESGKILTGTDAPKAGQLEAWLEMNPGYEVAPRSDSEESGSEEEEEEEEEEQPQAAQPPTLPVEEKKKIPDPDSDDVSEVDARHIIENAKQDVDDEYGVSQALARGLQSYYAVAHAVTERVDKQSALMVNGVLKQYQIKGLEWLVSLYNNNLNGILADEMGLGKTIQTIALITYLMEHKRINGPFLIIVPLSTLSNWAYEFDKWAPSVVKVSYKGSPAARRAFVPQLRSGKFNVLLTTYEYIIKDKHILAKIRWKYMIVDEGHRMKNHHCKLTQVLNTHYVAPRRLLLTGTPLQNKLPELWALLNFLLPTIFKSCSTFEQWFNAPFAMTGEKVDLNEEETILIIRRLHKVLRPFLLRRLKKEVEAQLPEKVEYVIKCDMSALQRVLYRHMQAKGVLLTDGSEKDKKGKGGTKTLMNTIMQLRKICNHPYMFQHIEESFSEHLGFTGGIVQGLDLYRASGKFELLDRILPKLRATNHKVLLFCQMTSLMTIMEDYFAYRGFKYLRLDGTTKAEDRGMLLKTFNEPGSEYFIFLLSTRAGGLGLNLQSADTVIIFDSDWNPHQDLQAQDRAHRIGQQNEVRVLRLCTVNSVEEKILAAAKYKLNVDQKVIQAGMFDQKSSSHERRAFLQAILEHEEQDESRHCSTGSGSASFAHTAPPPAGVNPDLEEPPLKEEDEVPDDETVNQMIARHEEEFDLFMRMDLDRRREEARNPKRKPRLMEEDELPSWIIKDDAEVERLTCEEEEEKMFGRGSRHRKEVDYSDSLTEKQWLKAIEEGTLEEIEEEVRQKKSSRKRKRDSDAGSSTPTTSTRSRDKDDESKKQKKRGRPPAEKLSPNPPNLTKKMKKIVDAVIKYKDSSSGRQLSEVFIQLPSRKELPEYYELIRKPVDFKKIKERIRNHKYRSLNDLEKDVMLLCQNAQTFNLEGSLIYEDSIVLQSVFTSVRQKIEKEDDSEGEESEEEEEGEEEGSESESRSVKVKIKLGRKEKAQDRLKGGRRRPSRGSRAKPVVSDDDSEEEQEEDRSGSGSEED
# IC50 listing for each entry below

CC(C)S(=O)(=O)c1cccc(C(=O)NCC(=O)Nc2nc(-c3cccc(-c4cc(C#N)cc(CO)c4)c3)cs2)c1 ... 0.1 to 1 µM
C[C@@H]1CN(c2cccc(-c3csc(NC(=O)CNC(=O)c4ccc5c(c4)[C@]4(CCC[C@H]4O)CC5)n3)c2)C[C@H](C)O1 ... > 5 µM
CC1COCc2ccc(C(=O)NCC(=O)Nc3nc(-c4cccc(N5C[C@@H](C)O[C@@H](C)C5)n4)cs3)cc21 (stereo partly drawn) ... 0.1 to 1 µM
C[C@@H]1CN(c2cccc(-c3csc(NC(=O)CNC(=O)c4ccc5c(c4)C(F)(C(F)F)COC5)n3)c2)C[C@H](C)O1 (stereo in doubt) [Compound 308] ... < 0.1 µM
Cc1nccc(-c2cccc(-c3csc(NC(=O)CNC(=O)c4ccc5c(c4)[C@@](C)(CO)CC5)n3)n2)n1 ... 0.1 to 1 µM

Please find the next molecule below.
Task: Which measured IC50 belongs to CC(C)S(=O)(=O)c1cccc(C(=O)NCC(=O)Nc2nc(-c3cccc(-c4ccnc(CN(C)C)c4)c3)cs2)c1 , tested on BRG-1 (Homo sapiens)?
Result: 1 to 5 µM

----------
biological target: UniProtKB P51532; experiment: ATPase catalytic activity assay of BRG-1 (ADP-Glo); type: biochemical; settings: ATPase catalytic activity, ADP-Glo; read-out: BRG1 Max % Inhibition
Measured Property: Emax

Before answering, review these 3 worked examples.
Cc1cc(-c2cccc(-c3csc(NC(=O)CNC(=O)c4ccc5c(c4)[C@@](C)(CN)CCC5)n3)c2)cc(C)n1 ... < 30%
CN(C)Cc1cc(-c2cccc(-c3csc(NC(=O)CNC(=O)c4cccc(C(C)(C)CN)c4)n3)c2)ccn1 ... > 60%
CC(C)S(=O)(=O)c1cccc(C(=O)NCC(=O)Nc2nc(-c3cc(C#N)cc(-c4ccc(CN)cc4)c3)cs2)c1 ... > 80%

Task: Which Emax is reported for this compound? C[C@H](N)C(C)(C)c1cccc(C(=O)NCC(=O)Nc2nc(-c3cccc(-c4ccncc4)c3)cs2)c1
Result: > 30%

Task: Report Emax for C[C@@H]1CN(c2cccc(-c3csc(NC(=O)CNC(=O)c4ccc5c(c4)[C@@](C)(C#N)CCO5)n3)c2)C[C@H](C)O1 please.
Result: > 40%

Task: Any idea what its Emax is? The compound is C[C@@H]1CN(c2cccc(-c3csc(NC(=O)CNC(=O)c4ccc5c(c4)[C@@]4(CCO4)COC5)n3)n2)C[C@H](C)O1
Result: > 95%

----------
Listed here: items and their measured IC50.
target: BRG-1 (Homo sapiens); test: ATPase catalytic activity assay of BRG-1 (ADP-Glo); type: biochemical; conditions: ATPase catalytic activity, ADP-Glo; read-out: BRG1 IC50 (μM)*

Previously resolved entries follow.
CSCC[C@H](NC(=O)c1cccc(C(C)(C)CN)c1)C(=O)Nc1nc(-c2cccc(-c3ccncc3)c2)cs1 [Compound 48] ... 0.1 to 1 µM
Cn1ncc2ccc(-c3csc(NC(=O)CNC(=O)c4ccc5c(c4)[C@](C)(CO)CC5)n3)cc21 [Compound 179] ... > 5 µM
Cn1ccc2ccc(-c3csc(NC(=O)CNC(=O)c4ccc5c(c4)[C@](C)(F)COC5)n3)cc2c1=O [Compound 389] ... < 0.1 µM
C[C@@H]1CN(c2cccc(-c3csc(NC(=O)CNC(=O)c4cccc(C5(CO)CC5)c4)n3)n2)C[C@H](C)O1 [Compound 182] ... 0.1 to 1 µM

Task: Requested read-out IC50, target or system BRG-1 (Homo sapiens), entry C[C@@H]1CN(c2cccc(-c3csc(NC(=O)CNC(=O)c4ccc5c(c4)C4(CC4)COC5)n3)n2)C[C@H](C)O1 [Compound 406]
Result: 0.1 to 1 µM

Task: Recall the recorded IC50 for Cc1ccc(C(=O)NCC(=O)Nc2nc(-c3cccc(-c4ccn(C)n4)c3)cs2)cc1C(C)(C)CN [Compound 70] with BRG-1 (Homo sapiens) and state it.
Result: > 5 µM

Task: // map O=C(CNC(=O)c1ccc2c(c1)C1(CCNC1=O)CC2)Nc1nc(-c2cccc(-c3ccncc3)c2)cs1 (centres unmarked) [Compound 108] to recorded IC50 (system: BRG-1 (Homo sapiens))
Result: 1 to 5 µM

Task: What measured IC50 is associated with Cc1cc(-c2cccc(-c3csc(NC(=O)CNC(=O)c4cccc(C(C)(C)C(C)C)c4)n3)c2)cc(C)n1 [Compound 90] on BRG-1 (Homo sapiens)?
Result: > 5 µM

Task: Can you look up IC50 on BRG-1 (Homo sapiens) for Cc1cc(-c2cccc(-c3csc(NC(=O)CNC(=O)c4cccc(S(=O)(=O)C(C)CN)c4)n3)c2)cc(C)n1 (centres unmarked) [Compound 114] ?
Result: 0.1 to 1 µM

Task: Hello, I am looking for reported IC50 with BRG-1 (Homo sapiens) for C[C@@H]1CN(c2cccc(-c3csc(NC(=O)CNC(=O)c4ccc5c(c4)C(F)(C(F)F)COC5)n3)c2)C[C@H](C)O1 (stereo in doubt) [Compound 307] . Could you help?
Result: < 0.1 µM

Task: Observed IC50 on BRG-1 (Homo sapiens) for C[C@@H]1CN(c2cccc(-c3csc(NC(=O)CNC(=O)c4ccc5c(c4)C4(CCO5)COC4)n3)n2)C[C@H](C)O1 [Compound 381] , please.
Result: > 5 µM

Task: Query the reported IC50 for BRG-1 (Homo sapiens); item: CC1(C#N)CCc2ccc(C(=O)NCC(=O)Nc3nc(-c4cccc(-c5ccncc5)c4)cs3)cc21 (centres unmarked) [Compound 76]
Result: < 0.1 µM

Task: Field: IC50 (BRG-1 (Homo sapiens)). Entry: C[C@@H]1CN(c2cccc(-c3csc(NC(=O)CNC(=O)c4ccc5c(c4)[C@]4(CCC[C@@H]4O)CC5)n3)c2)C[C@H](C)O1 [Compound 189]
Result: 1 to 5 µM

Task: Give IC50 (BRG-1 (Homo sapiens)) of the following compound: C[C@@H]1CN(c2cccc(-c3csc(NC(=O)CNC(=O)c4ccc5c(c4)[C@@](C)(CO)CC5)n3)c2)C[C@H](C)O1 [Compound 219]
Result: 0.1 to 1 µM

----------
target: BRM (Homo sapiens); assay: ATPase catalytic activity assay of BRM (ADP-Glo); assay type: biochemical; settings: read-out: BRM IC50 (μM)*
Sequence (P51531 whole entry): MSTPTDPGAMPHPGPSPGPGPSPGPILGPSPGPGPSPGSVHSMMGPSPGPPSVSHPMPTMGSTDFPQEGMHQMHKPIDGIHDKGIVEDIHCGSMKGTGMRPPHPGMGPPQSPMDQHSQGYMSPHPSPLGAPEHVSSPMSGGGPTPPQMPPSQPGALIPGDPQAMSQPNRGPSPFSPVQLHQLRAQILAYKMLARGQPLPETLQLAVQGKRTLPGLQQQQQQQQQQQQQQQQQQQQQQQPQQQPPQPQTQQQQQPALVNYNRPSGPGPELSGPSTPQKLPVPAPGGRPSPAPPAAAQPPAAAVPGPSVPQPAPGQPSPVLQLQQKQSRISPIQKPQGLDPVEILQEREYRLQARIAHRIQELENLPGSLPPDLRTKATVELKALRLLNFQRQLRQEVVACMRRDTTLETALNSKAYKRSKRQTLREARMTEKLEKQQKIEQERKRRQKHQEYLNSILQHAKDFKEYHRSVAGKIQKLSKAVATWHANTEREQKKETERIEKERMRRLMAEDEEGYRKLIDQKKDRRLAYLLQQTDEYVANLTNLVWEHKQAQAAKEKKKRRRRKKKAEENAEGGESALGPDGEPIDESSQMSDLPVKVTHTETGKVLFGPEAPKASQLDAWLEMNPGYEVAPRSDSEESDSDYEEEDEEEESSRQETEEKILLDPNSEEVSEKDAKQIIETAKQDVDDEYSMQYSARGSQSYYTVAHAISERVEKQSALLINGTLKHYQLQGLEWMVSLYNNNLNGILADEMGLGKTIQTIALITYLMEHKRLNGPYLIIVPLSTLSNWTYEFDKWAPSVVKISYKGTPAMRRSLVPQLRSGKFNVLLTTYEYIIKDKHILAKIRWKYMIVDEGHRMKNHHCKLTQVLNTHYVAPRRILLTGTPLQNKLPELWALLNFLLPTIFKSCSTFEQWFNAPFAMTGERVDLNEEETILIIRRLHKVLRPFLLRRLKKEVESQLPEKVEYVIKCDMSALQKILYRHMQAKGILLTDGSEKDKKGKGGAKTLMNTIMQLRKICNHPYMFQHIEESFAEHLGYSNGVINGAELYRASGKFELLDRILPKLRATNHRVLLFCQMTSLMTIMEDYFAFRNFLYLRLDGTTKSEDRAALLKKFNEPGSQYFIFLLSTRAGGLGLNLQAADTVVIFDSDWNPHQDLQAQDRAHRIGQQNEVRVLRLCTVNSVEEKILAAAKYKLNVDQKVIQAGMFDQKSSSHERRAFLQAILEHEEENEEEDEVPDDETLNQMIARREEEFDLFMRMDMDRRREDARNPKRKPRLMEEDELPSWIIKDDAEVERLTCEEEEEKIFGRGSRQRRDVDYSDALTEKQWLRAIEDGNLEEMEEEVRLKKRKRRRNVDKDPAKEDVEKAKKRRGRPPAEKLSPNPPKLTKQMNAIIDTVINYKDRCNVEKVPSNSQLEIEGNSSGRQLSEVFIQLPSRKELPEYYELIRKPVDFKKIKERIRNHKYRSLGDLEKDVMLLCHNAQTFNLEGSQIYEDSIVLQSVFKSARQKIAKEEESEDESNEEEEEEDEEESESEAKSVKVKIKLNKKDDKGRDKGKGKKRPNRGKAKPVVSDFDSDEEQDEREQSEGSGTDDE
Measured Property: IC50

Would you please look over these solved cases?
COC(=O)N1CCC[C@@H](c2csc(NC(=O)CNC(=O)c3ccc4c(c3)[C@](C)(C#N)COC4)n2)C1 [Compound 355] ... < 0.1 µM
CC1(CO)CCc2ccc(C(=O)NCC(=O)Nc3nc(-c4cccc(-c5cccc(C#N)c5)c4)cs3)cc21 (stereo not shown) [Compound 233] ... < 0.1 µM
Cc1cc(-c2cccc(-c3csc(NC(=O)CNC(=O)c4cccc(C(C)(C)CO)c4)n3)n2)ncn1 [Compound 230] ... < 0.1 µM
C[C@@H]1CN(c2cccc(-c3csc(NC(=O)CNC(=O)c4cccc(C5(O)COC5)c4)n3)c2)C[C@H](C)O1 [Compound 184] ... 0.1 to 1 µM
C[C@@H]1CN(c2cccc(-c3csc(NC(=O)CNC(=O)c4ccc5c(c4)[C@](C)(CO)CC5)n3)c2)C[C@H](C)O1 [Compound 218] ... 0.1 to 1 µM

Task: Give the measured IC50 of Cn1ccc2ccc(-c3csc(NC(=O)CNC(=O)c4cccc(C(C)(C)CN)c4)n3)cc2c1=O [Compound 67] .
Result: 1 to 5 µM

Task: Consider the compound CC1CCN1c1cccc(-c2csc(NC(=O)CNC(=O)c3ccc4c(c3)[C@](C)(C#N)COC4)n2)c1 (stereo partly shown) [Compound 351] and give its measured IC50.
Result: < 0.1 µM

----------
target: BRM (Homo sapiens); assay: ATPase catalytic activity assay of BRM (ADP-Glo); format: biochemical
Measured Property: BRM Max % Inhibition

C[C@@H]1CN(c2cccc(-c3csc(NC(=O)CNC(=O)c4ccc5c(c4)[C@@H](CO)CC5)n3)n2)C[C@H](C)O1 [Compound 161] ... >95%
C[C@@]1(F)COCc2ccc(C(=O)NCC(=O)Nc3nc(-c4ccnc(C5(O)CC5)c4)cs3)cc21 [Compound 330] ... >95%

Task: Entry CC(C)(C)c1cccc(C(=O)NCC(=O)Nc2nc(-c3cccc(N4CCC4)c3)cs2)c1 [Compound 196] has what BRM Max % Inhibition?
Result: >90%

Task: Record request: BRM Max % Inhibition value, item Cn1ccc2ccc(-c3csc(NC(=O)CNC(=O)c4cccc(C(C)(C)CN)c4)n3)cc2c1=O [Compound 67]
Result: >70%

Task: Item Cc1cc(C)c(C(C)(C)CN)cc1C(=O)NCC(=O)Nc1nc(-c2cccc(-c3ccncc3)c2)cs1 [Compound 89] has what recorded BRM Max % Inhibition?
Result: >80%
